Reported inhibition is given for each of the following molecules.
- tested_on: cAMP-dependent protein kinase catalytic subunit alpha (Homo sapiens)
- method_notes: Inhibition of PRKACA (unknown origin) at 500 nM
Could you give me the number in %? Just the number is fine.

See these solved cases before continuing.
{"chemical_smiles": "COc1cc(CO)ccc1-c1cc2c(N[C@H](CO)c3ccccc3)ncnc2s1", "result_units": "%", "inhibition": 1}
{"chemical_smiles": "COc1cc(CO)ccc1-c1cc2c(N[C@H](C)c3ccccc3)ncnc2s1", "result_units": "%", "inhibition": 2}
{"chemical_smiles": "CN(C)CCNC(=O)c1ccc(-c2cc3c(N[C@H](CO)c4ccccc4)ncnc3s2)cc1", "result_units": "%", "inhibition": -5}
{"chemical_smiles": "C#Cc1cccc(Nc2ncnc3sc(-c4ccc(CO)cc4OC)cc23)c1", "result_units": "%", "inhibition": -1}

Now for the molecule whose inhibition we want.
IN: Look at this molecule and give its reported inhibition. COc1cc(CO)ccc1-c1cc2c(Nc3ccccc3)ncnc2s1
OUT: 2
